Tested on: PPARg:RXRa IVT, anti-PPARg (NR concentration 270 nM, RXRa partner concentration 90 nM)
protocol-notes: PBM binding z-score (relative to random genomic background probes); higher = stronger binding; sequences stand for … in GC…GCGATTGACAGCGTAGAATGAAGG
readout-label: PBM binding z-score
Give a plain numeric answer without units written out.

| seq-text | assayed-target | readout-label | meas-value |
| --- | --- | --- | --- |
| TCTAGTTGGTCAAGGAGGTCACACACGACGGGTA | PPARg:RXRa IVT, anti-PPARg (NR concentration 270 nM, RXRa partner concentration 90 nM) | PBM binding z-score | 3.77 |
| ACTATTAGATGAGACGAGGGCAACCGATAGGTTG | PPARg:RXRa IVT, anti-PPARg (NR concentration 270 nM, RXRa partner concentration 90 nM) | PBM binding z-score | 0.591 |
| TCTCGGAGGACACGAAGGTCAGACCTTTCCAGAG | PPARg:RXRa IVT, anti-PPARg (NR concentration 270 nM, RXRa partner concentration 90 nM) | PBM binding z-score | 0.996 |
| TCTAGTTGGTCACGGACGTCACACACGACGGGTA | PPARg:RXRa IVT, anti-PPARg (NR concentration 270 nM, RXRa partner concentration 90 nM) | PBM binding z-score | 1.94 |
| CCTTACGGGTCACTGACAGGGTATAGCATTTGGA | PPARg:RXRa IVT, anti-PPARg (NR concentration 270 nM, RXRa partner concentration 90 nM) | PBM binding z-score | 3.31 |

Here is another sequence to look at.
PBM binding z-score reported for this sequence CTCGAAAGGTCTGTTGAGGTGAGTATACGGATAA : 0.358
